Recorded HD50 for the following compounds
system: fresh sheep erythrocytes; test: Hemolytic activity; assay type: cell-based; conditions: 50% hemolysis, Table 1
Numeric answer only, unit µg/mL assumed.

These recorded examples may help you get a feel for the data.
NCCCCNc1nc(NCc2ccccc2)nc(NCc2cccc3ccccc23)n1 = 167.5
NCCCCNc1nc(NCc2ccccc2)nc(Nc2cccc3ccccc23)n1 = 901.9
CCCCN(CCCC)CCCNc1nc(NCc2ccccc2)nc(Nc2cccc3ccccc23)n1 = 840.8

Dear colleague, I am looking for the recorded HD50 of the following compound: CCCCN(CCCC)CCCNc1nc(NCc2ccccc2)nc(NCc2cccc3ccccc23)n1
221.3

* * *

test system: S. aureus; assay: Growth inhibition (broth microdilution), S. aureus; type: cell-based, Staphylococcus aureus; details: S. aureus; Table 1
observed property: MIC90 (µg/mL)
Numeric answer only, unit µg/mL assumed.

These recorded examples may help you get a feel for the data.
NCCCCNc1nc(NCc2ccccc2)nc(Nc2cccc3ccccc23)n1 = 71.3
CCCCN(CCCC)CCCNc1nc(NCc2ccccc2)nc(Nc2cccc3ccccc23)n1 = 14.55
NCCCCNc1nc(NCc2ccccc2)nc(NCc2cccc3ccccc23)n1 = 9.8

Now take the following molecule into account.
Dear colleague, I am looking for the recorded MIC90 of the following molecule: CCCCN(CCCC)CCCNc1nc(NCc2ccccc2)nc(NCc2cccc3ccccc23)n1
117.5

* * *

test system: A. baumannii; assay: Growth inhibition (broth microdilution), A. baumannii; format: cell-based, Acinetobacter baumannii; conditions: Table 1
Recorded MIC50 for the following compounds
Units required after the number.

NCCCCNc1nc(NCc2ccccc2)nc(NCc2cccc3ccccc23)n1 [TN5] = 3 µg/mL

Query the reported MIC50 for A. baumannii; item: NCCCCNc1nc(NCc2ccccc2)nc(Nc2cccc3ccccc23)n1 [TN3]
50.8 µg/mL

Another compound: CCCCN(CCCC)CCCNc1nc(NCc2ccccc2)nc(NCc2cccc3ccccc23)n1 [TN4]
302.5 µg/mL

Another compound: CCCCN(CCCC)CCCNc1nc(NCc2ccccc2)nc(Nc2cccc3ccccc23)n1 [TN2]
12.8 µg/mL

Hello, the source for this data is patent US9273015B2, in case you need it.
